- System: SNB-75 CNS
- Assay comment: NCI tumour cell line growth inhibition, 48 h
Reported TGI is given for each of the following compounds.
Property: TGI

[[record]]
compound = "CN(C)C(=Nc1nc(=[N+](C)C)ss1)N(C)C"
property = "TGI"
result = "> 100 µM"

[[record]]
compound = "O=C1C=C2SC3C[C@@]24CC1[N+]1=c2c4c(c(O)c4c2=C(C=N4)CC1)N3"
property = "TGI"
result = "12.2 µM"

[[record]]
compound = "O=C1C=CC(=C(c2ccc(O)cc2)c2ccc(O)cc2)C=C1"
property = "TGI"
result = "10.2 µM"

[[record]]
compound = "O=[N+]([O-])c1ccc(Oc2nc(Nc3ccc(O[C@H]4CO[C@H]5[C@@H]4OC[C@@H]5O)c(Cl)c3)ncc2F)c(Cl)c1"
property = "TGI"
result = "3.28 µM"

[[record]]
compound = "COc1ccc(/C=c2\\sc3n(c2=O)C2C(NN=3)N(C)C(=O)N2C)cc1 (stereo unspecified)"
property = "TGI"
result = "6.77 µM"

[[record]]
compound = "COc1cc(O)c2c(=O)c3c(C)cccc3n(C)c2c1"
property = "TGI"
result = "> 10 µM"

[[record]]
compound = "CCCCCCCCCCCCc1ccc(S(=O)(=O)O)cc1.[Zn+2]"
property = "TGI"
result = "> 100 µM"

[[record]]
compound = "Cc1c(CCO)c(=O)n2c([nH]c3ccccc32)c1C#N"
property = "TGI"
result = "> 100 µM"

[[record]]
compound = "CCCC(C)n1c(C)nc2c1C(=O)c1ccccc1C2=O (stereo unspecified)"
property = "TGI"
result = "> 100 µM"

[[record]]
compound = "Cn1c(=O)c(NC(=O)C(Cl)(Cl)Cl)nc2ccccc21"
property = "TGI"
result = "> 100 µM"

[[record]]
compound = "CSCCCS/C1=C/CCCCCCCCCC1"
property = "TGI"
result = "> 100 µM"

[[record]]
compound = "Nc1cc(O)ccc1N=Nc1ccc(-c2nc3ccccc3[nH]2)cc1"
property = "TGI"
result = "> 100 µM"

[[record]]
compound = "CSC1C(=O)Nc2ccc3ccccc3c21 (stereo unspecified)"
property = "TGI"
result = "70.5 µM"

[[record]]
compound = "N[C@@H]1C(=O)N2C(C(=O)OC(c3ccccc3)c3ccccc3)=C(CCl)CS[C@H]12"
property = "TGI"
result = "> 100 µM"

[[record]]
compound = "Cc1ccc(C(NC(=O)c2ccccc2)c2ccc3cccnc3c2O)cc1 (stereo unspecified)"
property = "TGI"
result = "60 µM"

[[record]]
compound = "O=c1cc(NNc2cccc(F)c2)[nH]c(=O)[nH]1"
property = "TGI"
result = "> 100 µM"


Data origin, for the record: PubChem BioAssay (NCI)
